Just for reference, patent US20230374150A1 is where these values come from.

- target: T1, Human PSMA antigen (human, UniProt Q04609 44-750, limits assumed)
- T1 construct: This is the antigen immobilised on the Biacore chip; also called FOLH1_HUMAN
- T1 sequence (Q04609 44-750 limits assumed): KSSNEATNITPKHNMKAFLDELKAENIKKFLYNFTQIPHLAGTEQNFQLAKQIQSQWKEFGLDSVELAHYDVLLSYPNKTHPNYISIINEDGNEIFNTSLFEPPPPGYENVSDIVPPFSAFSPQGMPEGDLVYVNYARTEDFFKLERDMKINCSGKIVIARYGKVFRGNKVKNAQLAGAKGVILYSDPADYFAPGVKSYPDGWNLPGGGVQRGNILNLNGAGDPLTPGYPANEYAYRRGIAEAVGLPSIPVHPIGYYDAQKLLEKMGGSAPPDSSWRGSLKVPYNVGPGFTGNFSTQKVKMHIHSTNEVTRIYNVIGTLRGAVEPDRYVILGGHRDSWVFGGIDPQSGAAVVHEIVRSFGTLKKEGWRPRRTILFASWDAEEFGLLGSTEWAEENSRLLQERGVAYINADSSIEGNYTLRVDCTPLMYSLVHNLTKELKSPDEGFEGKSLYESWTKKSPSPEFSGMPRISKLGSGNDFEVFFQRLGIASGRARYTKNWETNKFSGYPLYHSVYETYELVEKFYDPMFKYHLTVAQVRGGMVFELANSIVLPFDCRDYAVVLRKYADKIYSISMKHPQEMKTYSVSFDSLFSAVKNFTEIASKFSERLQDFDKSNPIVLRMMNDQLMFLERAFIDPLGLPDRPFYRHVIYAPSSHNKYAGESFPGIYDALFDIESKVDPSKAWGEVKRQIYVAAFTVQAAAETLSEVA
- run description: SPR (Biacore), 37 C, antibody over immobilized PSMA
endpoint: kon (M⁻¹ s⁻¹)
Give bare numbers, in M⁻¹ s⁻¹.

Consider the reported kon for these binders:
binder | kon (M⁻¹ s⁻¹)
10J5-chimeric J591 (antibody, V domains shown, also called J591 chimeric antibody) VH: EVQLQQSGPELVKPGTSVRISCKTSGYTFTEYTIHWVKQSHGKSLEWIGNINPNNGGTTYNQKFEDKATLTVDKSSSTAYMELRSLTSEDSAVYYCAAGWNFDYWGQGTTLTVSS VL: DIVMTQSHKFMSTSVGDRVSIICKASQDVGTAVDWYQQKPGQSPKLLIYWASTRHTGVPDRFTGSGSGTDFTLTITNVQSEDLADYFCQQYNSYPLTFGAGTMLDLKR | 58500
murine J591 (antibody, V domains shown, also called original mouse antibody J591; mouse J591) VH: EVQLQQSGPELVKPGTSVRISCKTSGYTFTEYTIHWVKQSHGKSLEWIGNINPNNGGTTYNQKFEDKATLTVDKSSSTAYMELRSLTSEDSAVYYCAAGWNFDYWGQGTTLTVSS VL: DIVMTQSHKFMSTSVGDRVSIICKASQDVGTAVDWYQQKPGQSPKLLIYWASTRHTGVPDRFTGSGSGTDFTLTITNVQSEDLADYFCQQYNSYPLTFGAGTMLDLKR | 17700

Please examine the following record next.
Consider the binder shown here: huJ591 (J591_VH-1 + J591_VL-2) (antibody, human IgG1, V domains shown, One of the 9 huJ591 versions; Human IgG1 frameworks) VH: QVQLVQSGAEVKKPGASVKVSCKASGYTFTEYTMHWVRQAPGQGLEWMGNINPNNGGTTYAQKFQGRVTMTRDKSISTAYMELSRLRSDDTAVYYCAAGWNFDYWGQGTLVTVSS VL: DIQLTQSPSFLSASVGDRVTITCRASQDVGTALDWYQQKPGKAPKLLIYWASTRHSGVPSRFSGSGSGTEFTLTISSLQPEDFATYYCQQYNSYPLTFGQGTKLEIK What is its recorded kon? 77900
